- Tested on: SNB-78
- test details: NCI tumour cell line growth inhibition, 48 h
Calls of active or inactive are those of the source. No stated cut-off is given here; in the data, active = GI50 up to about 1.1 µM and inactive = higher.
The reply should name one outcome from active, inactive

molecule	label class
COc1cc(O)c(Cc2ccccc2O)c(O)c1C(=O)CCc1ccccc1 [UVARETIN]	inactive
CN1CCC(c2c(O)cc(O)c3c(=O)cc(-c4ccccc4Cl)oc23)C(O)C1 (centres undefined)	active
C[Si](C)(C)/C=C/CCC(C=O)(CCCl)c1ccccc1 (centres undefined)	inactive
O=C1c2ccccc2C2(O)Nc3cc(O)ccc3C12O (centres undefined)	inactive
SCc1ccc(-c2ccc(CS)cc2)cc1	inactive

## Task Which outcome was assigned to C(=C1/CCCCC([n+]2ccccc2)=N1)/c1ccccc1 in this test?
## Result inactive

## Task For COc1ccccc1NC(=O)C1=C(C)NC(C)=C(C(=O)Nc2ccccc2OC)C1c1ccc(C)cc1 , what call appears in the results of this test?
## Result inactive

## Task Name the outcome recorded for O=C(O)CSc1nnc(/C=C/c2ccccc2)[nH]1 in the assay.
## Result inactive

## Task Please indicate how the test categorized O=c1[nH]c(Br)nc2c(Br)c[nH]c12 .
## Result inactive

## Task Which result was noted for this molecule in the test: CCCCN(CCCC)CCCCNc1c(C)cnc2cc(Cl)ccc12
## Result inactive

## Task Record request — test call for CCCC(O)c1ccc2[nH]c3c(C)cc([N+](=O)[O-])c(C)c3c2c1 (centres undefined)
## Result inactive

## Task Query: recorded result category for CC(C)(C=O)CC(C#N)/C(=N\NC(N)=O)C(=O)Nc1ccccc1C(N)=O (centres undefined) in this test
## Result inactive

## Task Hey, what did the test say about CC(C)[C@](O)(C(=O)OCC1=CC[N+]2([O-])CC[C@@H](O)[C@@H]12)[C@H](C)O (some centres undefined) [INDICINE N-OXIDE] ?
## Result inactive

## Task Test call, this molecule: O=C(NCCCCCCNC(=O)n1cc(F)c(=O)[nH]c1=O)NCCCOCCOCCOCCOCCOCCOCCOCCOCCOCCOCCOCCOCCOCCOCCOCCOCCOCCOCCOCCOCCOCCCNC(=O)C(O)C(O)C(OC1OC(CO)C(O)C(O)C1O)C(O)CO (centres undefined)
## Result inactive

## Task // outcome(item) with item = COc1c(O)c2c(c3cc(C(=O)N4CCc5c4c(O)c(OC)c4[nH]c(C(=O)N6CC7CC78C6=CC(=O)c6[nH]cc(C)c68)cc54)[nH]c13)CCN2C(N)=O (centres undefined) [CC-1065]
## Result active

## Task Which outcome was entered for the molecule Cc1c(C#N)c(=O)[nH]c(=O)n1CCN1CCN(C(=O)NCCCCCCNC(=O)N2CCN(CCn3c(C)c(C#N)c(=O)[nH]c3=O)CC2)CC1 in this test?
## Result inactive
